Origin of values: the RNAGym collection of RNA variant scans (doi:10.7554/elife.80360)

B1: Hairpin Ribozyme (parent)
chain: GUCCUCUUUCACGUGCGCGUGAAAGAGAGAAGUGAACCAGAGAAACACACGUUGUGGUAUAUUACCUGGUA

# Variants of: B1
# test.description: self-cleavage, relative activity (ratio to wild type); higher = more cleavage; co-transcriptional
quantity.name: self-cleavage
I only need the number, thanks.

Guide cases for self-cleavage, answers given:
seq.string	quantity.name	result
GUCCUCUUUCACGUGCGCGUGAAAUAGAGAAGUGAACCAGAGAAACACACGUUGUGGUAUAUCACCUGGUA [G25U U63C]	self-cleavage	0.184
GUCCUCUUUCACGUGCGCGUGAAAGAGAGAAGUGAACCAGAGAAACACACGUUGCGGUUUAUUACCUGGUA [U55C A59U]	self-cleavage	0.239
GUCCCCUUUCACGUGCGCGUGAAAGAGACAAGUGAACCAGAGAAACACACGUUGUGGUAUAUUACCUGGUA [U5C G29C]	self-cleavage	0.205
GUCCUCUUUCACGUGCGCGUGAAAGAGAGAAGUGUACCAGAGAAACACACGUUGUGGUAUAUAACCUGGUA [A35U U63A]	self-cleavage	0.227
GUCCCCUUUCACGUGCGCGUGAAAGAGAGAAGUGAACCAGAGCAACACACGUUGUGGUAUAUUACCUGGUA [U5C A43C]	self-cleavage	0.193
GUCCUCUUUCACGUGCGCGUGAAAGAGAGAAGGGCACCAGAGAAACACACGUUGUGGUAUAUUACCUGGUA [U33G A35C]	self-cleavage	0.333

(Q) Looking for the measured self-cleavage of GUCCUCUUUCACGUGCGCGUGAAAGAGAGAAGUGAACCAGAGAAACACACCUUGUGGUAUAUUACCUGGUG [G51C A71G] , can you help?
(A) 0.814

(Q) What value of self-cleavage has been reported for the following variant? GUCCUCUUUCACGUGCGCGUGAAAGAGACAAGUGAACCAGAGAAAUACACGUUGUGGUAUAUUACCUGGUA [G29C C46U]
(A) 0.171

(Q) Item GUCCUCUUUCACGUGCGCGUGAAAGAGAGAAGUGAUCCAGAGGAACACACGUUGUGGUAUAUUACCUGGUA [A36U A43G] has what recorded self-cleavage?
(A) 0.138
